Experiment: Chemical stability of the compound in phosphate buffer assessed as half life at pH 7.3 by HPLC analysis
Type: physicochemical
valueType: half-life (days)
Reply numerically in days, unit not repeated.

Recorded results for 3 compounds are shown here.
[[record]]
compound = "CCCCCCCCCCCCCCCCCCOP(=O)(OCCCC)OP(=O)(O)OP(=O)(O)OC[C@@H]1C=C[C@H](n2cc(C)c(=O)[nH]c2=O)O1.N.N (some centres not stated)"
unitlabel = "days"
numericreadout = 41.2

[[record]]
compound = "CCCCCCCCCCCCCCCCCCP(=O)(OCCCCCCCCCCCC)OP(=O)(O)OP(=O)(O)OC[C@@H]1C=C[C@H](n2cc(C)c(=O)[nH]c2=O)O1.N.N (some centres not stated)"
unitlabel = "days"
numericreadout = 34.6

[[record]]
compound = "CCCCCCCCCCCCCCCCCCP(=O)(OC)OP(=O)(O)OP(=O)(O)OC[C@@H]1C=C[C@H](n2cc(C)c(=O)[nH]c2=O)O1.N.N (some centres not stated)"
unitlabel = "days"
numericreadout = 27.2


Fill blank: measured half-life of the compound CCCCCCCCCCCCCCCCCCOP(=O)(OC)OP(=O)(O)OP(=O)(O)OC[C@@H]1C=C[C@H](n2cc(C)c(=O)[nH]c2=O)O1.N.N (some centres not stated) is ____.
32.9

* * *

Experiment: Prodrug conversion in pH 7.3 phosphate buffer assessed as metabolite formation by measuring half life in presence of pig liver esterase by HPLC analysis
Type: ADME
Conditions: isolated protein
valueType: t1/2 (min)
Hi! Could you send only the number? It should be in min, unit omitted.

Reference set, count: 3
[[record]]
compound = "CCCCCCCCCCCCCCCCCCOP(=O)(OCc1ccc(OC(=O)CCCC)cc1)OP(=O)(O)OC[C@@H]1C=C[C@H](n2cc(C)c(=O)[nH]c2=O)O1.N (stereo partly specified)"
unitlabel = "min"
numericreadout = 10.8

[[record]]
compound = "CCCCCCCCCCCCCCCCCCP(=O)(OCc1ccc(OC(=O)CCCC)cc1)OP(=O)(O)OC[C@@H]1C=C[C@H](n2cc(C)c(=O)[nH]c2=O)O1.N (stereo partly specified)"
unitlabel = "min"
numericreadout = 15

[[record]]
compound = "CCCCCCCCCCCCP(=O)(OCc1ccc(OC(=O)CCCCCCCCCCC)cc1)OP(=O)(O)OC[C@@H]1C=C[C@H](n2cc(C)c(=O)[nH]c2=O)O1.N (stereo partly specified)"
unitlabel = "min"
numericreadout = 16.2


Query compound follows.
Could you tell me which t1/2 is on file for CCCCCCCCCCCCOP(=O)(OCc1ccc(OC(=O)CCCCCCCCCCC)cc1)OP(=O)(O)OC[C@@H]1C=C[C@H](n2cc(C)c(=O)[nH]c2=O)O1.N (stereo partly specified) ?
40.2

* * *

Assay: Prodrug conversion in human CEM/0 cell extract assessed as metabolite formation by measuring half life by HPLC analysis
Format: ADME
Conditions: ccrf-cem
valueType: t1/2

[[record]]
compound = "CCCCOP(=O)(O)OP(=O)(O)OC[C@@H]1C=C[C@H](n2cc(C)c(=O)[nH]c2=O)O1.N.N"
result = "> 30 h"

[[record]]
compound = "CCCCCCCCCCCCOP(=O)(O)OP(=O)(O)OC[C@@H]1C=C[C@H](n2cc(C)c(=O)[nH]c2=O)O1.N.N"
result = "> 30 h"

[[record]]
compound = "CCCCCCCCCCCCCCCCCCP(=O)(OCCCC)OP(=O)(O)OC[C@@H]1C=C[C@H](n2cc(C)c(=O)[nH]c2=O)O1.N (some centres undefined)"
result = "> 40 h"

[[record]]
compound = "CCCCCCCCCCCCCCCCCCP(=O)(OC)OP(=O)(O)OP(=O)(O)OC[C@@H]1C=C[C@H](n2cc(C)c(=O)[nH]c2=O)O1.N.N (some centres undefined)"
result = "> 15 h"

[[record]]
compound = "CCCCCCCCCCCCCCCCCCOP(=O)(OCCCC)OP(=O)(O)OP(=O)(O)OC[C@@H]1C=C[C@H](n2cc(C)c(=O)[nH]c2=O)O1.N.N (some centres undefined)"
result = "> 10 h"


Quick one: t1/2 for CCCCCCCCCCCCOP(=O)(OCc1ccc(OC(=O)CCCC)cc1)OP(=O)(O)OC[C@@H]1C=C[C@H](n2cc(C)c(=O)[nH]c2=O)O1.N (some centres undefined) ?
1.1 h

Follow-up item: CCCCCCCCCCCCOP(=O)(OCc1ccc(OC(=O)CCCCCCCCCCC)cc1)OP(=O)(O)OC[C@@H]1C=C[C@H](n2cc(C)c(=O)[nH]c2=O)O1.N (some centres undefined)
4.5 h

Check CCCCCCCCCCCCCCCCCCP(=O)(OCc1ccc(OC(=O)CCCC)cc1)OP(=O)(O)OC[C@@H]1C=C[C@H](n2cc(C)c(=O)[nH]c2=O)O1.N (some centres undefined) too.
> 8 h

Entry CCCCCCCCCCCCCCCCCCOP(=O)(OCc1ccc(OC(=O)CCCC)cc1)OP(=O)(O)OC[C@@H]1C=C[C@H](n2cc(C)c(=O)[nH]c2=O)O1.N (some centres undefined) please
> 7 h

* * *

Assay: Prodrug conversion in human CEM/0 cell extract assessed as ((2S,5R)-5-(5-methyl-2,4-dioxo-3,4-dihydropyrimidin-1(2H)-yl)-2,5-dihydrofuran-2-yl)methyl tri-hydrogen diphosphate formation by HPLC analysis
Assay type: ADME
Details: ccrf-cem
valueType: Drug metabolism

[[record]]
compound = "CCCCCCCCCCCCCCCCCCP(=O)(OCCCC)OP(=O)(O)OC[C@@H]1C=C[C@H](n2cc(C)c(=O)[nH]c2=O)O1.N (some centres undefined)"
result = "Metabolite_Notdetected"

[[record]]
compound = "CCCCCCCCCCCCCCCCCCOP(=O)(OCCCC)OP(=O)(O)OC[C@@H]1C=C[C@H](n2cc(C)c(=O)[nH]c2=O)O1.N (some centres undefined)"
result = "Metabolite_Notdetected"

[[record]]
compound = "CCCCOP(=O)(O)OP(=O)(O)OC[C@@H]1C=C[C@H](n2cc(C)c(=O)[nH]c2=O)O1.N.N"
result = "Metabolite_Notdetected"


* * *

Test system: Human immunodeficiency virus 2
Experiment: Antiviral activity against HIV-2 ROD infected in thymidine kinase-deficient human CEM cells assessed as inhibition of virus-induced cytopathic effect incubated for 4 to 5 days by light microscopic analysis
Format: functional, organism-based
Settings: Human immunodeficiency virus 2, ROD, CCRF-CEM
valueType: EC50 (µM)
Quick note: give the figure in µM, leave out the unit.

Study these solved cases before continuing.
[[record]]
compound = "CCCCCCCCCCCC(=O)Oc1ccc(COP(=O)(OCCCC)OP(=O)(O)OC[C@@H]2C=C[C@H](n3cc(C)c(=O)[nH]c3=O)O2)cc1.N (some centres undefined)"
unitlabel = "µM"
numericreadout = 0.75

[[record]]
compound = "CCCCC(=O)Oc1ccc(COP(=O)(OC)OP(=O)(O)OC[C@@H]2C=C[C@H](n3cc(C)c(=O)[nH]c3=O)O2)cc1.N (some centres undefined)"
unitlabel = "µM"
numericreadout = 8.95

[[record]]
compound = "CCCCCCCCCCCCCCCCCCOP(=O)(OCCCCCCCC)OP(=O)(O)OC[C@@H]1C=C[C@H](n2cc(C)c(=O)[nH]c2=O)O1.N (some centres undefined)"
unitlabel = "µM"
numericreadout = 0.011


// next item, EC50 requested
Query the reported EC50 for Human immunodeficiency virus 2; item: `CCCCOP(=O)(O)OP(=O)(O)OC[C@@H]1C=C[C@H](n2cc(C)c(=O)[nH]c2=O)O1.N.N`
43.2

* * *

Test system: Human immunodeficiency virus 2
Assay: Antiviral activity against HIV-2 ROD infected in thymidine kinase-deficient human CEM cells assessed as inhibition of virus-induced cytopathic effect incubated for 4 to 5 days by light microscopic analysis
Format: functional, organism-based
Details: Human immunodeficiency virus 2, ROD, CCRF-CEM
valueType: pEC50
Please treat pEC50 as minus the base-10 logarithm of the molar concentration.

Solved cases (3 shown):
[[record]]
compound = "CCCCCCCCCCCCCCCCCCOP(=O)(O)OP(=O)(O)OC[C@@H]1C=C[C@H](n2cc(C)c(=O)[nH]c2=O)O1.N.N"
valuetype = "pEC50"
numericreadout = 9.00

[[record]]
compound = "COP(=O)(O)OP(=O)(O)OC[C@@H]1C=C[C@H](n2cc(C)c(=O)[nH]c2=O)O1.N.N"
valuetype = "pEC50"
numericreadout = 4.39

[[record]]
compound = "CCCCCCCCCCCCCCCCCCP(=O)(OCCCCCCCCCCCC)OP(=O)(O)OP(=O)(O)OC[C@@H]1C=C[C@H](n2cc(C)c(=O)[nH]c2=O)O1.N.N (some centres undefined)"
valuetype = "pEC50"
numericreadout = 6.46


Consider the additional compound presented here.
For the compound shown here, CCCCCCCCCCCCCCCCCCP(=O)(OCCCC)OP(=O)(O)OC[C@@H]1C=C[C@H](n2cc(C)c(=O)[nH]c2=O)O1.N (some centres undefined) , give the reported pEC50.
8.70
